Just for reference, patent US20260151494A1 is where these values come from.

molecular target: T1, human CD71 extracellular domain (human, UniProt P02786 89-760, biotinylated); experiment: primary ELISA; also: test concentration or dose not given here
T1 construct: also called hCD71; CD71-ECD
T1 sequence (P02786 89-760): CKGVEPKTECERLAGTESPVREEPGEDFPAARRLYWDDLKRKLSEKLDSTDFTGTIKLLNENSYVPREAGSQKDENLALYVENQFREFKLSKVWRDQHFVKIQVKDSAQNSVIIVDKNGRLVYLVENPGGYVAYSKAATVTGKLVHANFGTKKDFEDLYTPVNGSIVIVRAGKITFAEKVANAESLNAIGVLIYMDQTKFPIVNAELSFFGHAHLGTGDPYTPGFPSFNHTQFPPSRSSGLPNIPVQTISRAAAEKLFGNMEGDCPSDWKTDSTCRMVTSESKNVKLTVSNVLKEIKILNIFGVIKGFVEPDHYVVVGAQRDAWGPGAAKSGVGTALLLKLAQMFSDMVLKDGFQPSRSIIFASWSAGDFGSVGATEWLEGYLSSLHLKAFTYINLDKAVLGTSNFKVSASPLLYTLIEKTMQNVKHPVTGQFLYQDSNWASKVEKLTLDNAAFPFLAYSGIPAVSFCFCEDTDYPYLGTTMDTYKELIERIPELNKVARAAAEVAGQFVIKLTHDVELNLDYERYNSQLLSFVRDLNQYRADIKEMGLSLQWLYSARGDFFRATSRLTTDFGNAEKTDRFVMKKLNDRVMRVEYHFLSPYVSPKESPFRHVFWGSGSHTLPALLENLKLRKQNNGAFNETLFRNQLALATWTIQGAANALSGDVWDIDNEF
measurement-label: RLU (RLU)

The examples below pair each entry with its known result.
| binder | measurement-unit | observed |
| --- | --- | --- |
| CD71-binding FN3 domain of SEQ ID NO: 523 (designed binder) MLPAPKNLVVSRVTEDSARLSWTAPDAAFDSFFIGYLEPQPPGEAIDLLVPGSERSYDLTGLKPGTEYNVTIQGVKGGFPSEPLTAEFTT | RLU | 4.19e+06 |
| CD71-binding FN3 domain of SEQ ID NO: 454 (designed binder) MLPAPKNLVVSRVTEDSARLSWTAPDAAFDSFFIGYLEPQPPGEAINLTVPGSERSYDLTGLKPGTEYNVTIQGVKGGFPSYPLQASFTT | RLU | 4.18e+06 |

P. CD71-binding FN3 domain of SEQ ID NO: 515 (designed binder) MLPAPKNLVVSRVTEDSARLSWTAPDAAFDSFFIGYLEPQPPGEAIALWVPGSERSYDLTGLKPGTEYNVTIQGVKGGFPSTPLIAQFTT
Q. CD71-binding FN3 domain of SEQ ID NO: 519 (designed binder) MLPAPKNLVVSRVTEDSARLSWTAPDAAFDSFPIAYPEHLPPGEAIVLTVPGSERSYDLTGLKPGTEYPVNIRGVKGGFVSFPLSAIFTT
Select one. Lower RLU: P or Q Mark your answer with the label of the selected entry. Q
